Hello, the source for this data is patent US20260034094A1, in case you need it.

# system: human recombinant GCL (Homo sapiens (Human))
# Sequence (P48506 whole entry): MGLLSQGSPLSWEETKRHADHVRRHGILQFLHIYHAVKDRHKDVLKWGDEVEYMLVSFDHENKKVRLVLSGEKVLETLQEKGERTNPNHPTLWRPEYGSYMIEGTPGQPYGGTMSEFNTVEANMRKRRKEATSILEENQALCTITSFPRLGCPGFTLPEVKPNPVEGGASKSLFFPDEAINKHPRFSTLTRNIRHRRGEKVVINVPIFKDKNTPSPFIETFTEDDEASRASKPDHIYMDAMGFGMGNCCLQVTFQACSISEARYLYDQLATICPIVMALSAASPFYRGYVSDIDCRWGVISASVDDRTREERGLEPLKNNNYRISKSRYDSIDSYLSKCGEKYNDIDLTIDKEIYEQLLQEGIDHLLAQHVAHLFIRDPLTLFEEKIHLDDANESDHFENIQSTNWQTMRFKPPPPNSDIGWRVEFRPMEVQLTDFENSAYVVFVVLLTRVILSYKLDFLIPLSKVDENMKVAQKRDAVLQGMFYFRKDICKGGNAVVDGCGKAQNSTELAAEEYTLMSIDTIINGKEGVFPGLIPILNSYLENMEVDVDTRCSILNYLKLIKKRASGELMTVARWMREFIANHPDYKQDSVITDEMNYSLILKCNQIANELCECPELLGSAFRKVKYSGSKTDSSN
# assay name: GCL enzyme profiling assay (ADP-Glo luminescence)
# Type: biochemical
# condition description: human recombinant GCL 5 nM, 1 h preincubation with ATP; read-out: GCL IC50
readout: IC50

Ask: Query: IC50; subject: CC(COC(=O)c1ccccc1)OC(=O)[C@@H](N)CCS(=N)(=O)CCC(C)(C)C (some centres unmarked) [Compound 98]
Result: 20 to 2000 µM

Ask: What measured IC50 goes with Cc1c(F)cccc1CCS(=N)(=O)CC[C@H](N)C(=O)O (some centres unmarked) [Compound 26] ?
Result: ≤ 20 µM

Ask: Which IC50 is reported for this molecule? CCCCOC(=O)[C@@H](N)CCS(=N)(=O)CCC1CCCCC1 (some centres unmarked) [Compound 78]
Result: 20 to 2000 µM

Ask: Using the record for Cc1ccccc1OCCS(=N)(=O)CC[C@H](N)C(=O)O (some centres unmarked) [Compound 14] , report its IC50.
Result: 20 to 2000 µM

Ask: # input molecule: N=S(=O)(/C=C/c1ccccc1)CC[C@H](N)C(=O)O (some centres unmarked) [Compound 156] ; wanted: its IC50
Result: 20 to 2000 µM

Ask: Field request: IC50 | item: CCCCOC(=O)[C@@H](N)CC[S@@](=N)(=O)CCCC(F)(F)F [Compound 90]
Result: 20 to 2000 µM

Ask: Item N=S(=O)(CCCC1CC1)CC[C@H](N)C(=O)O (some centres unmarked) [Compound 134] has what recorded IC50?
Result: 20 to 2000 µM

Ask: Bench note: what IC50 did N=S(=O)(CCc1cnoc1)CC[C@H](N)C(=O)O (some centres unmarked) [Compound 9] show?
Result: 20 to 2000 µM

Ask: Param item = N=S(=O)(CC[C@H](N)C(=O)O)CC(=O)C1CCCC1 (some centres unmarked) [Compound 136] ; retrieve measured IC50.
Result: 20 to 2000 µM

Ask: Find the recorded IC50 belonging to N=[S@](=O)(CC[C@H](c1ccccc1)C(F)(F)F)CC[C@H](N)C(=O)O [Compound 60] and report it.
Result: ≤ 20 µM

Ask: Return reported IC50; argument: COC(CC[S@@](=N)(=O)CC[C@H](N)C(=O)O)C(F)(F)F (some centres unmarked) [Compound 177]
Result: > 2000 µM

Ask: # IC50 lookup, item N=S(=O)(CCc1cn[nH]c1)CC[C@H](N)C(=O)O (some centres unmarked) [Compound 8]
Result: 20 to 2000 µM

Ask: Item N=S(=O)(CCCC(F)(F)F)CC[C@H](N)C(=O)Nc1ccccc1 (some centres unmarked) [Compound 132] has what recorded IC50?
Result: > 2000 µM

Ask: Which IC50 value is on record for CCCCOC(=O)[C@@H](N)CCS(=N)(=O)CCCC(F)(F)F (some centres unmarked) [Compound 79] ?
Result: > 2000 µM

Ask: What IC50 value was documented for this molecule, CC(C)(C#N)CCS(=N)(=O)CC[C@H](N)C(=O)O (some centres unmarked) [Compound 171] ?
Result: 20 to 2000 µM

Ask: Which IC50 value is on record for COC(=O)[C@@H](N)CCS(=N)(=O)CCCc1ccccc1 (some centres unmarked) [Compound 70] ?
Result: 20 to 2000 µM

Ask: Which IC50 is listed for Cc1cccc(CCS(=N)(=O)CC[C@H](N)C(=O)O)c1C (some centres unmarked) [Compound 27] ?
Result: 20 to 2000 µM

Ask: I would be grateful if you could share the reported IC50 for N=S(=O)(CCC1CCC1)CC[C@H](N)C(=O)O (some centres unmarked) [Compound 165] .
Result: ≤ 20 µM

Ask: Given the entry Cc1ccc(CCS(=N)(=O)CC[C@H](N)C(=O)O)cc1 (some centres unmarked) [Compound 11] , report its measured IC50.
Result: ≤ 20 µM

Ask: What does the data say about its IC50? Entry: CCCCS(=N)(=O)CC[C@H](N)C(N)=O (some centres unmarked) [Compound 105]
Result: > 2000 µM

Ask: Form field: reported IC50 of Cc1ccc(C(=O)O)cc1CCS(=N)(=O)CC[C@H](N)C(=O)O (some centres unmarked) [Compound 41]
Result: 20 to 2000 µM

Ask: Entry Cc1cccc(Cl)c1CCS(=N)(=O)CC[C@H](N)C(=O)O (some centres unmarked) [Compound 42] has what IC50?
Result: 20 to 2000 µM

Ask: Please give the measured IC50 for this molecule: CCCCS(=N)(=O)CC[C@H](NC)C(=O)O (some centres unmarked) [Compound 159]
Result: > 2000 µM

Ask: Returns the measured IC50 for the input molecule. Input: COc1ccc(CCS(=N)(=O)CC[C@H](N)C(=O)O)cc1 (some centres unmarked) [Compound 12]
Result: 20 to 2000 µM

Ask: Quick one: IC50 for N=S(=O)(CCC1CC(F)(F)C1)CC[C@H](N)C(=O)O (some centres unmarked) [Compound 161] ?
Result: 20 to 2000 µM

Ask: Requested field: IC50. Item: N=S(=O)(CC[C@H](N)C(=O)O)CCC1(C(=O)N2CCC2)CCC1 (some centres unmarked) [Compound 196]
Result: 20 to 2000 µM

Ask: Entry N=S(=O)(CCc1cccc(OC(F)(F)F)c1)CC[C@H](N)C(=O)O (some centres unmarked) [Compound 4] : reported IC50 = ?
Result: 20 to 2000 µM

Ask: Dear colleague, I am looking for the recorded IC50 of the following molecule: CC(C)(CCS(=N)(=O)CC[C@H](N)C(=O)O)c1ccccc1F (some centres unmarked) [Compound 59]
Result: ≤ 20 µM

Ask: What does the record list as IC50 for CC(CS(=N)(=O)CC[C@H](N)C(=O)O)c1ccccc1Cl (some centres unmarked) [Compound 38] ?
Result: 20 to 2000 µM

Ask: Name the recorded IC50 for Cc1ccc(CCS(=N)(=O)CC[C@H](N)C(=O)O)c(F)c1 (some centres unmarked) [Compound 37] .
Result: ≤ 20 µM

Ask: Item COC(=O)[C@@H](N)CCS(=N)(=O)CCCC1CC1 (some centres unmarked) [Compound 71] has what recorded IC50?
Result: 20 to 2000 µM

Ask: Can you look up the measured IC50 of N=S(=O)(CCc1nccs1)CC[C@H](N)C(=O)O (some centres unmarked) [Compound 10] for me?
Result: > 2000 µM

Ask: Item under review: N=S(=O)(CCc1ccc(C(F)(F)F)cc1C(F)(F)F)CC[C@H](N)C(=O)O (some centres unmarked) [Compound 36] . Reported IC50?
Result: ≤ 20 µM

Ask: Could you share which IC50 value was measured for COC(=O)[C@@H](N)CCS(=N)(=O)CCc1cnccn1 (some centres unmarked) [Compound 67] ?
Result: > 2000 µM

Ask: Sample N=S(=O)(CCc1cccc(F)c1)CC[C@H](N)C(=O)O (some centres unmarked) [Compound 24] — what was its IC50?
Result: ≤ 20 µM
